- System: Karpas 1106p cells
- Measurement description: Cytotoxicity (LD50) against Karpas lymphoma cells
- Type: cell-based, human
- Protocol conditions: Table 3

| Structure smiles | Unit of measurement | Inequality operator | LD50 |
| --- | --- | --- | --- |
| COC[C@H](NC(=O)[C@H](CC(=O)NOC(C)(C)C)NC(=O)CCc1ccccc1)C(=O)NCc1cccc(OC)c1 | µM | = | 0.05 |
| C[C@H](NC(=O)[C@H](CC(=O)NOC(C)(C)C)NC(=O)CCc1ccccc1)C(=O)NCc1cccc2ccccc12 | µM | = | 34.4 |
| CC(=O)N[C@@H](Cc1ccc(F)cc1)C(=O)NCc1cccc2ccccc12 | µM | > | 100 |
| C[C@H](NC(=O)[C@H](CC(=O)NOC(C)(C)C)NC(=O)CCCc1ccccc1)C(=O)NCc1cccc2ccccc12 | µM | > | 100 |
| C[C@H](NC(=O)[C@H](CC(=O)NOC(C)(C)C)NC(=O)C(F)(F)F)C(=O)NCc1cccc2ccccc12 | µM | = | 7.8 |
| COC[C@H](NC(=O)[C@H](CC(=O)NOC(C)(C)C)NC(=O)CCc1ccccc1)C(=O)NCc1cccc2c1NCCC2 | µM | > | 100 |
| Cc1ccc(S(=O)(=O)N[C@@H](CC(=O)NOC(C)(C)C)C(=O)N[C@@H](C)C(=O)NCc2cccc3ccccc23)cc1 | µM | = | 5.3 |
